The reported measurements were obtained from patent US20040102325A1.

- Test system: Amaranthus
- Assay overview: Post-emergence herbicidal action, Amaranthus
- Type: in vivo
- Parameters: key: 1=total damage; 9=no action
- Condition description: post-emergence (2- to 3-leaf stage), 1000 g a.i/ha, 2 to 3 weeks, scale of nine ratings (1=total damage, 9=no action)
Value kind: Amaranthus, herbicidal action rating
Give a plain numeric answer without units written out.

Cc1ccc(OC(F)F)c(OCC#Cc2cccc(CC#N)c2)n1    1
N#CCc1cccc(C#CCOc2ccc(Cl)cn2)c1    1
COc1cc(F)cnc1OCC#Cc1cccc(CC#N)c1    1

Give the reported value of Amaranthus, herbicidal action rating for this record: `CSc1cccnc1OCC#Cc1cccc(CC#N)c1` 2

Please report Amaranthus, herbicidal action rating for the following compound: `COc1cc(Cl)cnc1OCC#Cc1cccc(CC#N)c1` 1
